test name: Cmax in male Sprague-Dawley rat at 20 mg/kg,po pretreated with 3-4-chloropheny1-N-4-2-morpholinoethylpheny1-4-oxo-3,4-dihydrophthalazine-1-carboxamide at 10 mg/kg measured by LC/MS analysis
Type: ADME, organism-based
Design: dose 20 mg/kg, route po
condition details: in vivo
property label: Cmax

Which Cmax value belongs to CC(=O)O[C@H]1C(=O)[C@@]2(C)[C@H]([C@H](OC(=O)c3ccccc3)[C@]3(O)C[C@H](OC(=O)[C@H](O)[C@@H](NC(=O)c4ccccc4)c4ccccc4)C(C)=C1C3(C)C)[C@]1(OC(C)=O)CO[C@@H]1C[C@@H]2O ? 652 ng/mL

====

test name: Oral bioavailability in male Sprague-Dawley rat at 20 mg/kg,po pretreated with 3-4-chloropheny1-N-4-2-morpholinoethylpheny1-4-oxo-3,4-dihydrophthalazine-1-carboxamide at 10 mg/kg measured by LC/MS analysis
Assay type: ADME, organism-based
condition details: in vivo
property label: bioavailability (%)
Give the number; % is assumed, so skip it.

// returns reported bioavailability for input CC(=O)O[C@H]1C(=O)[C@@]2(C)[C@H]([C@H](OC(=O)c3ccccc3)[C@]3(O)C[C@H](OC(=O)[C@H](O)[C@@H](NC(=O)c4ccccc4)c4ccccc4)C(C)=C1C3(C)C)[C@]1(OC(C)=O)CO[C@@H]1C[C@@H]2O 45.1

====

test name: Apparent permeability of compound in human Caco-2 cells from basal to apical after 90 mins by LC-MS/MS analysis
Type: ADME, cell-based
property label: Papp B→A at 1.5 h (×10⁻⁶ cm/s)
Note: unit ×10⁻⁶ cm/s is implicit; provide only the numeric part.

Any idea what Papp B→A at 1.5 h was measured for CC(=O)O[C@H]1C(=O)[C@@]2(C)[C@H]([C@H](OC(=O)c3ccccc3)[C@]3(O)C[C@H](OC(=O)[C@H](O)[C@@H](NC(=O)c4ccccc4)c4ccccc4)C(C)=C1C3(C)C)[C@]1(OC(C)=O)CO[C@@H]1C[C@@H]2O ? 5.85

====

Tested on: MDCK
test name: Cytotoxicity against dog MDCK cells after 48 hrs by MTT assay
Type: functional, cell-based
condition details: Canis lupus familiaris
# key: entry, value: IC50

compound	IC50
O=C(NCCc1ccccc1)c1nn(-c2ccc(Cl)cc2)c(=O)c2ccccc12	> 100 µM
O=C(Nc1ccc(CCN2CCOCC2)cc1)c1nn(-c2ccc(Cl)cc2)c(=O)c2ccccc12	87.7 µM

# query: IC50 | item O=C(NCCCN1CCOCC1)c1nn(-c2ccc(Cl)cc2)c(=O)c2ccccc12 | system: MDCK > 100 µM

Next molecule: O=C(NCCN1CCOCC1)c1nn(-c2ccc(Cl)cc2)c(=O)c2ccccc12 > 100 µM

Entry O=C(Nc1ccc(CCN2CCc3ccccc3C2)cc1)c1nn(-c2ccc(Cl)cc2)c(=O)c2ccccc12 please > 100 µM

Next entry: O=C(Nc1ccc(N2CCOCC2)cc1)c1nn(-c2ccc(Cl)cc2)c(=O)c2ccccc12 > 100 µM

Entry COc1ccc(CCNC(=O)c2nn(-c3ccc(Cl)cc3)c(=O)c3ccccc23)cc1OC please > 100 µM

====

test name: Apparent permeability of compound in human Caco-2 cells from apical to basal after 60 mins by LC-MS/MS analysis
Type: ADME, cell-based
property label: Papp A→B at 1 h (×10⁻⁶ cm/s)
Give just the numeric value; ×10⁻⁶ cm/s need not be written.

I'd like to know its Papp A→B at 1 h. The compound in question is CC(=O)O[C@H]1C(=O)[C@@]2(C)[C@H]([C@H](OC(=O)c3ccccc3)[C@]3(O)C[C@H](OC(=O)[C@H](O)[C@@H](NC(=O)c4ccccc4)c4ccccc4)C(C)=C1C3(C)C)[C@]1(OC(C)=O)CO[C@@H]1C[C@@H]2O 1.02

====

Listed below: IC50 values for each entry.
test name: Cytotoxicity against dog MDCK-II-BCRP cells after 48 hrs by MTT assay
Assay type: functional, cell-based
condition details: Canis lupus familiaris

compound	IC50
O=C(NCCCN1CCOCC1)c1nn(-c2ccc(Cl)cc2)c(=O)c2ccccc12	> 100 µM
O=C(NCCc1cccc(Cl)c1)c1nn(-c2ccc(Cl)cc2)c(=O)c2ccccc12	51.4 µM
O=C(NCCc1cccc(F)c1)c1nn(-c2ccc(Cl)cc2)c(=O)c2ccccc12	> 100 µM
COc1cc2c(cc1OC)CN(CCc1ccc(NC(=O)c3cc(OC)c(OC)cc3NC(=O)c3cnc4ccccc4c3)cc1)CC2	> 100 µM
O=C(Nc1ccc(CCN2CCc3ccccc3C2)cc1)c1nn(-c2ccc(Cl)cc2)c(=O)c2ccccc12	> 100 µM

What does the data say about its IC50? Entry: O=C(Nc1ccc(N2CCOCC2)cc1)c1nn(-c2ccc(Cl)cc2)c(=O)c2ccccc12 > 100 µM

Repeat with COc1ccc2c3c([nH]c2c1)[C@H](CC(C)C)N1C(=O)[C@H](CCC(=O)OC(C)(C)C)NC(=O)[C@@H]1C3 > 100 µM

Input O=C(NCCc1ccccc1)c1nn(-c2ccc(Cl)cc2)c(=O)c2ccccc12 97.3 µM

Moving on to the next compound: O=C(NCCN1CCOCC1)c1nn(-c2ccc(Cl)cc2)c(=O)c2ccccc12 > 100 µM

Input O=C(Nc1ccc(CCN2CCOCC2)cc1)c1nn(-c2ccc(Cl)cc2)c(=O)c2ccccc12 81.2 µM

Lookup COc1ccc(CCNC(=O)c2nn(-c3ccc(Cl)cc3)c(=O)c3ccccc23)cc1OC > 100 µM

====

test name: AUC (0 to t) in male Sprague-Dawley rat at 20 mg/kg,po pretreated with 3-4-chloropheny1-N-4-2-morpholinoethylpheny1-4-oxo-3,4-dihydrophthalazine-1-carboxamide at 10 mg/kg measured by LC/MS analysis
Type: ADME, organism-based
Set-up: dose 20 mg/kg, route po
condition details: in vivo
property label: AUC(0-t) (ng·h/mL)
Numbers only; they are read as ng·h/mL.

Returns the measured AUC(0-t) for the input compound. Input: CC(=O)O[C@H]1C(=O)[C@@]2(C)[C@H]([C@H](OC(=O)c3ccccc3)[C@]3(O)C[C@H](OC(=O)[C@H](O)[C@@H](NC(=O)c4ccccc4)c4ccccc4)C(C)=C1C3(C)C)[C@]1(OC(C)=O)CO[C@@H]1C[C@@H]2O 3130

====

system name: ATP-dependent translocase ABCB1 (Homo sapiens, UniProt P08183)
Sequence (P08183 whole entry): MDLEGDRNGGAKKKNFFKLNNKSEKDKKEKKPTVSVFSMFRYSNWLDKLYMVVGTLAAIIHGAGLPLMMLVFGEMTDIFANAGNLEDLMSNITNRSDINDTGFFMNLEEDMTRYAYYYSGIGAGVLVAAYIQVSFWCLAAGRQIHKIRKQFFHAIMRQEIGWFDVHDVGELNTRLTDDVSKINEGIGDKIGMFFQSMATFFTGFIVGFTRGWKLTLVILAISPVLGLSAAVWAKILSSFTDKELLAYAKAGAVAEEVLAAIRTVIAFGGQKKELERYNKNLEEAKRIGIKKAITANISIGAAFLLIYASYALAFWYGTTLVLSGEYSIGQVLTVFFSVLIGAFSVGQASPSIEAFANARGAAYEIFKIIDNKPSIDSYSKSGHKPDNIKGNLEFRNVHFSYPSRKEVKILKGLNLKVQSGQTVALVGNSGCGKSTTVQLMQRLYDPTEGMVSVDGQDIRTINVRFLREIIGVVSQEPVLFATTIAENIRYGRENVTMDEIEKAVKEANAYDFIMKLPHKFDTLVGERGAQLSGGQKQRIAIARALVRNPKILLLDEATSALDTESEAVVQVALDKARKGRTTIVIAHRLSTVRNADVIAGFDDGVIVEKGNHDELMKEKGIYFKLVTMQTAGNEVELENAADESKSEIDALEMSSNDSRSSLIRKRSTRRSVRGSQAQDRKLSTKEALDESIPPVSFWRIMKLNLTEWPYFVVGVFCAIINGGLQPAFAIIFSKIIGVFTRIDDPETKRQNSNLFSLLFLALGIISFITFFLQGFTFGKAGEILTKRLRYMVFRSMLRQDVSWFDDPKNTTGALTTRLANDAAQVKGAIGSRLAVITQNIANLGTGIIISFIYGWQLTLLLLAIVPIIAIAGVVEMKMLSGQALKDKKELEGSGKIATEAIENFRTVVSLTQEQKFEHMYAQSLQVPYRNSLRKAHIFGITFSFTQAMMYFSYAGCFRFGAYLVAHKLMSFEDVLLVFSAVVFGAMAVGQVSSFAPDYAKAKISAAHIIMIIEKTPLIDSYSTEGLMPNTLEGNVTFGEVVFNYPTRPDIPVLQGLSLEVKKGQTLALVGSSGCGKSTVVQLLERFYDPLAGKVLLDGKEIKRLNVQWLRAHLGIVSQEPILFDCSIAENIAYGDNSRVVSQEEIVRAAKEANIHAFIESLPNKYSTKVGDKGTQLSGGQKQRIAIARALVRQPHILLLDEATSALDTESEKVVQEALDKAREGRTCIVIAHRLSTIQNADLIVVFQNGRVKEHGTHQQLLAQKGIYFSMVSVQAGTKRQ
test name: Inhibition of P-gp (unknown origin)
pEC50: −log10 of the molar value.
property label: pEC50

Solved entries:
compound	system name	pEC50
COc1cc2ncnc(Nc3ccc(F)c(Cl)c3)c2cc1OCCCN1CCOCC1	ATP-dependent translocase ABCB1 (Homo sapiens, UniProt P08183)	< 6.00
C#Cc1cccc(Nc2ncnc3cc(OCCOC)c(OCCOC)cc23)c1	ATP-dependent translocase ABCB1 (Homo sapiens, UniProt P08183)	< 5.31

Let us examine a further case.
Bench note: what pEC50 did CS(=O)(=O)CCNCc1ccc(-c2ccc3ncnc(Nc4ccc(OCc5cccc(F)c5)c(Cl)c4)c3c2)o1 show? < 5.55

====

test name: Apparent permeability of compound in human Caco-2 cells from apical to basal after 30 mins by LC-MS/MS analysis
Assay type: ADME, cell-based
property label: Papp A→B at 0.5 h (×10⁻⁶ cm/s)
// note: answer is a bare numeric in ×10⁻⁶ cm/s

Entry CC(=O)O[C@H]1C(=O)[C@@]2(C)[C@H]([C@H](OC(=O)c3ccccc3)[C@]3(O)C[C@H](OC(=O)[C@H](O)[C@@H](NC(=O)c4ccccc4)c4ccccc4)C(C)=C1C3(C)C)[C@]1(OC(C)=O)CO[C@@H]1C[C@@H]2O : reported Papp A→B at 0.5 h = ? 0.09

====

test name: Apparent permeability of compound in human Caco-2 cells from basal to apical after 30 mins by LC-MS/MS analysis
Assay type: ADME, cell-based
property label: Papp B→A at 0.5 h (×10⁻⁶ cm/s)
Form entry: value (×10⁻⁶ cm/s) — number only.

Which Papp B→A at 0.5 h is reported for this molecule? CC(=O)O[C@H]1C(=O)[C@@]2(C)[C@H]([C@H](OC(=O)c3ccccc3)[C@]3(O)C[C@H](OC(=O)[C@H](O)[C@@H](NC(=O)c4ccccc4)c4ccccc4)C(C)=C1C3(C)C)[C@]1(OC(C)=O)CO[C@@H]1C[C@@H]2O 1.29

====

test name: Apparent permeability of compound in human Caco-2 cells from basal to apical after 60 mins by LC-MS/MS analysis
Type: ADME, cell-based
property label: Papp B→A at 1 h

Bench note: what Papp B→A at 1 h did CC(=O)O[C@H]1C(=O)[C@@]2(C)[C@H]([C@H](OC(=O)c3ccccc3)[C@]3(O)C[C@H](OC(=O)[C@H](O)[C@@H](NC(=O)c4ccccc4)c4ccccc4)C(C)=C1C3(C)C)[C@]1(OC(C)=O)CO[C@@H]1C[C@@H]2O show? 2.5 ×10⁻⁶ cm/s

====

Test system: MDCK
test name: Cytotoxicity against dog MDCK cells after 48 hrs by MTT assay
Type: functional, cell-based
condition details: Canis lupus familiaris
property label: IC50

compound	system name	IC50
O=C(NCCc1cccc(F)c1)c1nn(-c2ccc(Cl)cc2)c(=O)c2ccccc12	MDCK	> 100 µM
COc1ccc2c3c([nH]c2c1)[C@H](CC(C)C)N1C(=O)[C@H](CCC(=O)OC(C)(C)C)NC(=O)[C@@H]1C3	MDCK	93.3 µM
O=C(NCCc1cccc(Cl)c1)c1nn(-c2ccc(Cl)cc2)c(=O)c2ccccc12	MDCK	> 100 µM

Returns the measured IC50 for the input compound. Input: COc1cc2c(cc1OC)CN(CCc1ccc(NC(=O)c3cc(OC)c(OC)cc3NC(=O)c3cnc4ccccc4c3)cc1)CC2 > 100 µM
